Molecular target: EPHB2 (UniProt P29323)
Sequence (P29323 whole entry, looked up): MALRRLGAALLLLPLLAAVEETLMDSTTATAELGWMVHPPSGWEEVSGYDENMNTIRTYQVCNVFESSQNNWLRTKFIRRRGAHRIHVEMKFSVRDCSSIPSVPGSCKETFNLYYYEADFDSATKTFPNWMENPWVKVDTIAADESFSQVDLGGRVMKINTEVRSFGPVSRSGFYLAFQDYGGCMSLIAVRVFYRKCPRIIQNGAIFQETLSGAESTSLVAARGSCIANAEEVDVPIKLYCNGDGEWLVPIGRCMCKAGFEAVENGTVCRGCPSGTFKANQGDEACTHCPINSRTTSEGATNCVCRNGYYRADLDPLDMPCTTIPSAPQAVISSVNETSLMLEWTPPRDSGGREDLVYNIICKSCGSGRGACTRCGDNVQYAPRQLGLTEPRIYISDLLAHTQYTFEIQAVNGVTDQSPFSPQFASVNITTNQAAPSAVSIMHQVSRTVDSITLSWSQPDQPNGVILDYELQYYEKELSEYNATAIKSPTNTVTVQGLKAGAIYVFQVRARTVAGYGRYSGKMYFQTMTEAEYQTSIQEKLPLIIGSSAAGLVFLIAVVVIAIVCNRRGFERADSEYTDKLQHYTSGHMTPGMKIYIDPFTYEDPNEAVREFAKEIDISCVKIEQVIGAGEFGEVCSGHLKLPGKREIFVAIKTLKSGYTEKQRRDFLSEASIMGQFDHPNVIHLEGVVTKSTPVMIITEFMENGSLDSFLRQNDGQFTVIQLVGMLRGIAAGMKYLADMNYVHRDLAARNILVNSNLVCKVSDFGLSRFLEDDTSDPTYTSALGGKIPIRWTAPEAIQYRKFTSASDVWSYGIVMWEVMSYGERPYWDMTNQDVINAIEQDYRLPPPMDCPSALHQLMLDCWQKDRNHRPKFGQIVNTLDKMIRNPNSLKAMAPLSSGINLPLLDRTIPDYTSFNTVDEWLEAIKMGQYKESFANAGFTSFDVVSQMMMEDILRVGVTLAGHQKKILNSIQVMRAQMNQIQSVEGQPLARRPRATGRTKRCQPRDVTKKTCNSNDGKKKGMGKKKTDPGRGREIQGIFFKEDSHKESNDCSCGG
Assay: phosphorylation enrichment, bacterial display (enrichment ratio); higher = better substrate or ligand; peptides without Tyr show the background
observed.property: phosphorylation enrichment

1. LFLASYCIGGG [UBD_Y161_C160S] | 0.788
2. VNCHQYDGLVE [ATP2A2_Y407] | 0.659
3. KANEYYPVVLI [ADAMTS18_Y765] | 3.11
4. KSAAIYNPVIF [RHO_Y301_YF] | 0.519
5. NTTIHYNFMCN [TP53_Y234_C229N_YF] | 0.618
6. FQKNIYSEEPR [LMNA_Y211_L215P] | 0.443
7. RMSQRYGDVLQ [CYP1A2_Y72] | 0.41
8. IYLGAYDRFLP [SLC22A5_Y486_V481I] | 4.21
9. ISGGGYRACPA [FGB_Y71_R74C] | 0.404
10. IEENGYNTYAS [FGF10_Y161] | 0.593
11. GQKTLYSFFSP [UNG_Y8] | 2.12
12. QKFMAYLSQGG [HLCS_Y236] | 0.803
13. QDRDLYPCPGT [RLF_Y671] | 0.693
14. TDRNLYSKNLV [CFAP58_Y501_S496T] | 0.56
15. EDKSIYRRGAR [PRKCI_Y125] | 0.425
16. QKMADYSNKLF [PDPR_Y104_YF] | 0.647
17. GSIQQYIYKQE [PRG4_Y1271] | 0.567
18. GRRGQYVMLSE [TTC7A_Y396] | 0.494
19. LRGEDCGFSVD [PRKCI_Y430_Y430C] | 1.14
20. KDHLDYKFQPR [SOX9_Y172_P170L_YF] | 0.478
21. TQPSPYAVYRF [RPGRIP1_Y823] | 1.84
22. VPLATYMQIYK [RPL21_Y30_R32Q] | 0.737
23. VFDHIYTTQSD [RET_Y928_L923V] | 0.467
24. SVVVPYQPPEV [TP53_Y220_E221Q] | 0.51
25. AHAGEYGAEAL [HBA1_Y25] | 0.394
26. TAALWYIYSHT [ENG_Y612] | 0.832
27. LTEEKYELKEG [TREM1_Y29] | 0.875
28. IGRWVYPLTPE [EIF2B5_Y319_R315G] | 0.58
29. RKKLFYKADGE [SERPINC1_Y272_E269K] | 0.579
30. PLLEYYWDIFT [CDAN1_Y713_R714W] | 1.28
31. AFDNLYYWDQD [ERBB2_Y1221] | 4.41
32. HDEPTYARSSK [PEAK1_Y616] | 0.321
33. FAKSVYWDNTL [NUP107_Y296_E298D_YF] | 0.772
34. ASTDFYKRGDF [PDHA1_Y243_YF] | 0.375
35. GVRTIYTIDGS [DCLK2_Y124] | 0.507
36. NVPILYTASQA [CTNNA1_Y222] | 0.449
37. KPGLKYVTYGN [GALNTL5_Y404] | 0.624
38. KATKGYLDDPT [G6PD_Y322_E317K] | 0.603
39. VDASYCGGRGV [ANTXR2_Y381_Y381C] | 0.28
40. SRDDDYETIAM [NPY1R_Y347] | 1.03
41. TLCLCYKETEE [ATP8B1_Y658_I661T] | 0.749

----------
Molecular target: Hck (UniProt P08631)
Sequence (P08631 whole entry, looked up): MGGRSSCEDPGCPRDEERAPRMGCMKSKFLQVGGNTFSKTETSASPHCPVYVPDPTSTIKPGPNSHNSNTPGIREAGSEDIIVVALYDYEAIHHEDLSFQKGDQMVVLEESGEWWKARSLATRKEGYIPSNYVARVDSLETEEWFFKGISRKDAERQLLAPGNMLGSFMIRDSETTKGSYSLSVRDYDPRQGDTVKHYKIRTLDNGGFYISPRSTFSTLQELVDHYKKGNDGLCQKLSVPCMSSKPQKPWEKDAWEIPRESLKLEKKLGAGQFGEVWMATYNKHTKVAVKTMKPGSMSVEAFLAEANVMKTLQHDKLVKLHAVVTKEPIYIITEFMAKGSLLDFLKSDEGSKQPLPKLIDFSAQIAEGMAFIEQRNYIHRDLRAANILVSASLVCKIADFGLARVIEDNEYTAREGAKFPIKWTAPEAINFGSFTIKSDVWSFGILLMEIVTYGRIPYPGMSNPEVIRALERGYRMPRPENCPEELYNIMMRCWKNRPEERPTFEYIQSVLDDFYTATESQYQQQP
Assay: phosphorylation enrichment, bacterial display (enrichment ratio); higher = better substrate or ligand; peptides without Tyr show the background
Records here are stratified by phosphorylation enrichment; strata: low end: < 0.5; middle: ≥ 0.5 and < 0.7; high end: ≥ 0.7

1. LKGQVYILGRE [ASS1_Y359] | low end
2. KRLDGYVLEGW [IGSF9_Y656_R661W] | low end
3. SVVVCYEPPEV [TP53_Y220_P219C] | middle
4. QMQLKYSQSDL [SMC1A_Y714_R711Q] | middle
5. MDDPRYGMCPL [ZNF100_Y6] | middle
6. NALAQYQEMEK [BBS4_Y395] | middle
7. MVIPNYSSWTE [UROC1_Y185_R188W] | high end
8. PSSNLYFRCLT [CNGA3_Y168_W171C_YF] | high end
9. WAFNLYDINKF [KCNIP3_Y174_D179Y_YF] | high end
10. KKFPDYIQSAM [SGMS2_Y59_I62S_YF] | low end
11. IIEDPYYGNDS [ACP1_Y132] | high end
12. QLPRGYISILV [BAG3_Y205_P209L] | middle

----------
Molecular target: EPHB2 (UniProt P29323)
Test: phosphorylation enrichment, bacterial display (enrichment ratio); higher = better substrate or ligand; peptides without Tyr show the background
observed.property: phosphorylation enrichment

1) LNFNEYFRDLN [HPRT1_Y198_D194N_YF] | 1.01
2) QFLMMYVWSAS [ABCD1_Y337_K336M] | 0.931
3) MHDSNSVSKGS [PDGFRA_Y849_Y849S] | 0.374
4) YGMSSYITRED [FNDC3B_Y180_T179S] | 0.452
5) CTTVHYNYMCN [TP53_Y234_I232V] | 0.496
6) PRARTYCYKQE [KLHDC9_Y175_S171R] | 0.574
7) ICANKYMVESC [RPL10_Y75_K78E] | 0.502
8) SETDDYAEIIV [PTK2_Y397_D402V] | 1.04
9) KDAGDYKCKAK [LRIT3_Y326] | 0.312
10) LVSCAYQMARG [FGFR1_Y605_V607M] | 0.79
11) EGGFAYVPLKD [PRIM2_Y208_D204G] | 0.567
12) EFGEVYKGMLK [EPHA2_Y628] | 0.441
13) HLDRSYSFSFS [PEAR1_Y890_R885H_YF] | 0.658
14) FRKNIYNVKST [SYNE2_Y575_YF] | 0.378
15) EAVLHYKHQNQ [MTOR_Y1804] | 0.403
16) RRETPYGGGGG [FUS_Y526_R524T] | 0.62
17) LVMFIYAIFWM [SCN1A_Y1684_G1688W] | 0.491
18) PIYEGYALPHA [ACTA1_Y171] | 35.7
19) FADIAYNFRHG [PAH_Y166_YF] | 0.514
20) VGEGPYLISDL [ABCC12_Y7] | 0.5
21) KDIENYIQDGK [RAD50_Y964] | 0.515
22) TLRKTYGEMAD [ALB_Y108_E106K] | 0.355
23) LKGQVYILGRE [ASS1_Y359] | 0.949
24) IENKLYGMSDP [RET_Y1062] | 0.653
25) CTTIHYNFMCT [TP53_Y234_N239T_YF] | 0.485
26) VIKDKYPKAHY [APTX_Y209_R213H] | 0.359
27) FADTAYNFRHG [PAH_Y166_I164T_YF] | 0.386
28) NKKHHYRELPV [ERN2_Y860] | 0.773
29) SKDQICPMKLK [RANBP17_Y823_Y823C] | 0.565
30) CEHRGHLFLAI [TEK_Y897_Y897H_YF] | 0.544
31) TDLAFYLVREG [ASL_Y376_K380E_YF] | 0.703
32) REDVFYTSKLW [AKR1C2_Y81_I79V] | 0.631

----------
Molecular target: SHP2-C SH2;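 further: peptide library displayed on the E. coli surface as eCPX fusions, selected cells deep-sequenced, score is each peptide's frequency after selection divided by its frequency in the input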
Test: SH2 binding enrichment of the phosphorylated peptide, bacterial display (enrichment ratio); higher = better substrate or ligand; peptides without Tyr show the background
Decide using SH2 binding enrichment: a value greater than or equal to 0.7 is T, a smaller one is F.

1. DFPIGYPSYLA [TBCK_Y153] | F
2. CDTKLYTSAPN [DNTTIP2_Y427] | F
3. NGRQCYSCRGN [PLAUR_Y217_K220R] | T
4. QGLMPYGQPRP [SRRT_Y798] | F
5. TVETKYDNISR [SETDB2_Y477] | T
6. HDEPTYARSSK [PEAK1_Y616] | T
7. GVRTIYTIDGS [DCLK2_Y124] | T
8. LLASGYDSPIN [ABLIM1_Y638_R637G] | F
9. CVAARYMDVKG [WFIKKN2_Y93] | F
10. NRLTDYYELLL [BBS10_Y536_P539L] | T
11. TQPSPYAVYRF [RPGRIP1_Y823] | T
12. PDDPNYSLVDD [PSTPIP2_Y323] | T
13. ELPQTYCVSGP [DYSF_Y1684_G1679E] | T
14. IQRSLYDRPAS [PDGFRA_Y762] | F
15. GGKFSYLKVGH [GRM3_Y480_YF] | F
16. RENGPYYTSYP [GDAP2_Y487] | F
17. RGEKQYLATPL [ALOX12_Y295_A298T] | T
18. AVLALYNSTRD [TGFB1_Y81] | F
19. SKEPYYVRCIK [MYO1D_Y586] | F
20. DGNTRYSTFSE [TKTL1_Y318_D315N] | T
21. NTGNFYDLFGG [PTPN11_Y63_D61N_YF] | T
22. DGSALYTGSAL [COL6A3_Y524] | F
23. ADAHHYLCKEV [JAK2_Y382] | F
24. LTSKPYAFTAR [NDUFS1_Y236] | T
25. QFQEKYKQMEQ [HCN4_Y531_V534M_YF] | T
26. DVFLKHLNFAT [PDE6B_Y212_Y212H] | T
27. IPGRFYETGSI [PAX2_Y73_L69P_YF] | T
28. TEYIQYMRRKN [MAX_Y73] | T
29. RRETPYGGGGG [FUS_Y526_R524T] | F
